koff for assorted binders
Biological target: T1, HCoV-OC43 nucleocapsid (N) protein, 2X-StrepTag tagged (HCoV-OC43, UniProt P33469 1-448)
T1 sequence: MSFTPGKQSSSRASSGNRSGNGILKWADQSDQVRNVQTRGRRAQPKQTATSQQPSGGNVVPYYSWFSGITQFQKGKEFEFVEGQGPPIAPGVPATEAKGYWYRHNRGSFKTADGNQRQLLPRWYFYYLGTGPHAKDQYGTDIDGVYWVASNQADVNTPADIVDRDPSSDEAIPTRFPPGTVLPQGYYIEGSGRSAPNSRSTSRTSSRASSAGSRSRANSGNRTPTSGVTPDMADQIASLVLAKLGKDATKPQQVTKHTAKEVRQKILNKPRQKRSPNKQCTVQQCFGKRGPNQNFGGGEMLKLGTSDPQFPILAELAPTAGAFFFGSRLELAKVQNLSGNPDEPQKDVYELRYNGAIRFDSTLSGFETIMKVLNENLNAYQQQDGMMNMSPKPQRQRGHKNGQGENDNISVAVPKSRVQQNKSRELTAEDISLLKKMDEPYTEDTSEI
Test: BLI
Unit s⁻¹ implied. Number only.

Sample answers from the record:
| binder | recorded.number |
| --- | --- |
| CCL26 (ligand) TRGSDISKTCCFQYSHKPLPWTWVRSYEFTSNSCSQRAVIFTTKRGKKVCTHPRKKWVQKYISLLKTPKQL | 0.014 |
| CCL21 (ligand) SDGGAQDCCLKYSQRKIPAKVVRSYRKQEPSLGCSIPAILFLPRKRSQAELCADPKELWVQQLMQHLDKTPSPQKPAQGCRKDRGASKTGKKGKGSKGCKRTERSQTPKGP | 0.012 |
| CCL25 (ligand) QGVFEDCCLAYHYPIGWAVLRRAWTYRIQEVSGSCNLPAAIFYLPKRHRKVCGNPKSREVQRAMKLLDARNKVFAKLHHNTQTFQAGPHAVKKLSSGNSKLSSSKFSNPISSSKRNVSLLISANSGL | 0.0048 |

Give reported koff value for CXCL11 (ligand) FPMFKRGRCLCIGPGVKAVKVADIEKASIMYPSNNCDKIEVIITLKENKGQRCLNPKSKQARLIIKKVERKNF
0.012
